Reported inhibition values are given for each entry in this list.
test: 384-well plate pilot, post-Golgi transport modulator project, inhibition of yeast transport mutant growth (AID 636); details: absorbance 615 nm, about 18 h, stronger effect = higher value
Numeric answer only, unit % assumed.

Consider the following illustrative entries.
CCC(C)(C)NC(=O)C(OC(=O)c1ccco1)c1ccccc1OC (stereo not given) = -3.65
CCOC(=O)c1cnn(-c2cc(C)c3cc(C)cc(C)c3n2)c1N = 1.82
CCCN1CCN(C(=O)Cn2c(=O)oc3cc(S(=O)(=O)NCc4ccccc4)ccc32)CC1 = -2.67
CCOC(=O)c1cc2c(=O)n3cccc(C)c3nc2n(CCc2ccccc2)c1=N = -4.8

Kindly review the next compound as well.
Inquiry: Give me measured inhibition, please, for this compound: O=C(OCC(=O)N1CCCC1)c1ccccc1OCc1ccccc1
Reply text: -7.7

====

test: growth suppression of PTEN-deleted HCT116, pilot screen, cell-based, HCT116 clonal line, CellTiter-Glo (AID 824); conditions: 60 h, at 10 µM, stronger effect = lower value;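 further: 0% = 20 µM Hyamine control and 100% = vehicle cell control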
Results filed as inconclusive are left out.
readoutLabel: viability (%)
Numeric answer only, unit % assumed.

Inquiry: Give me measured viability, please, for this compound: Cn1cccc1Cc1nnc(SCC(=O)NC2CCCCC2)n1CCc1ccccc1
Reply text: 81.5

Inquiry: Give me measured viability, please, for this compound: Cn1c(Cn2c(=O)sc3ccccc32)nnc1SCC(=O)NCc1ccc2c(c1)OCO2
Reply text: 101

Inquiry: Give me measured viability, please, for this compound: Cc1ccc(-c2nc(-c3ccccn3)no2)cc1
Reply text: 24.4

Inquiry: Give me measured viability, please, for this compound: Cc1ccnc(N2C(=O)c3ccccc3C2Nc2cccc(C)c2C)c1 (stereo unspecified)
Reply text: 87.1

Inquiry: Give me measured viability, please, for this compound: O=C(c1cc(-c2cccs2)on1)N1CCCc2ccccc21
Reply text: 103

====

assay: growth suppression of PTEN-deleted HCT116, pilot screen, cell-based, HCT116 clonal line, CellTiter-Glo (AID 824); conditions: 60 h, at 10 µM, stronger effect = lower value;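 further: 0% = 20 µM Hyamine control and 100% = vehicle cell control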
Results filed as inconclusive are left out.
readoutLabel: viability (%)
Numeric answer only, unit % assumed.

COc1ccc(N2CCN(CCNC(=O)CCNS(=O)(=O)c3cccs3)CC2)cc1 = 96.3

Kindly review the next molecule as well.
Inquiry: Give me measured viability, please, for this molecule: O=C(O)c1ccc(N2CCCCCC2)c(N2C(=O)c3ccccc3C2=O)c1
Reply text: 98.2

====

test: growth suppression of beta-catenin knockout HCT116, pilot screen, human colon tumor cells (AID 823); details: CellTiter-Glo, 60 h, at 10 µM, stronger effect = lower value;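 further: 0% = wells killed by 20 µM Hyamine and 100% = untreated DMSO cell wells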
Results filed as inconclusive are left out.
Reported viability values are given for each entry in this list.
Numeric answer only, unit % assumed.

Inquiry: Give me measured viability, please, for this compound: CCOc1ccc(N(CC(=O)NC(C)(C)C)S(=O)(=O)c2c(C)noc2C)cc1
Reply text: 81.5

Inquiry: Give me measured viability, please, for this compound: c1ccc(OCCOCCSc2ncccn2)cc1
Reply text: 101

====

experiment: reversal of MRP1-mediated doxorubicin resistance, pilot screen, H69AR cells, doxorubicin co-treatment (AID 601); details: H69AR cells, CellTiter-Glo, 72 h; compound alone cytotoxicity; at 10 µM
readoutLabel: viability
Note: a bare number is incomplete; add the unit.

Cc1c(C(=O)O)sc2nc3n(c(=O)c12)CCC(C)CC3 (configuration not stated) = 88.2%
O=C(CCc1nc2ccccc2[nH]1)Nc1ccc2c(c1)OCO2 = 90.8%

Inquiry: Give me measured viability, please, for this compound: COc1ccc(C)cc1S(=O)(=O)N(CC(=O)O)c1ccccc1
Reply text: 86.1%

Inquiry: Give me measured viability, please, for this compound: CN(C)CCOC(C)(c1ccccc1)c1ccccn1 (configuration not stated)
Reply text: 93.5%

Inquiry: Give me measured viability, please, for this compound: CCc1ccccc1NC(=O)CSc1ncn[nH]1
Reply text: 103%
